# PROCEDURE DETAILS: Restrictive medium S. cerevisiae growth inhibition, OD615, pilot screen of yeast lifespan reduction project, restrictive growth control (AID 706);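 also: modified DeaD lifespan yeast strain shifted to restrictive glucose medium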
# TEST CONTEXT: OD615, 48 h, at 10 µM, hits give high values
MEASUREMENT NAME: growth inhibition (%)
Write the number in % without appending the unit.

Query Cc1cccc(-c2nc(CS(=O)CC(=O)NCC3CCCO3)c(C)o2)c1 (stereo unspecified) yields growth inhibition of 17.3

Query `O=C(CSc1nnc(-c2ccccc2)o1)Nc1ccccc1F` yields growth inhibition of -2.1

Query `O=C(Nc1ccccc1Cl)c1ccc(S(=O)(=O)N2CCOCC2)cc1` yields growth inhibition of -7.41

Query COC(=O)C(C)Sc1nnc(Cc2cc(=O)[nH]c(=O)[nH]2)n1-c1ccc(Cl)cc1 (stereo unspecified) yields growth inhibition of -7.63

Query `COc1cc2c(C(=O)NCc3ccccn3)cn(CC(C)C)c(=O)c2cc1OC` yields growth inhibition of -28.3

Query `CNC(=O)c1c(N)sc2c1CCCCC2` yields growth inhibition of 8.19

Query `C=CCn1c(=N)c(C(=O)NCCCOC)cc2c(=O)n3cccc(C)c3nc21` yields growth inhibition of 0.115

Query `CCc1nnc(NC(=O)c2ccc(N3C(=O)CCC3=O)cc2)s1` yields growth inhibition of -14.9

Query `COc1c(Cl)cc(-c2noc(C)c2C(=O)NCc2ccc3c(c2)OCO3)cc1Cl` yields growth inhibition of -10.4

Query `COc1ccc(CNC(=O)c2onc(C)c2Cl)cc1` yields growth inhibition of -17.2

Query `CCNc1nc(OCCNS(=O)(=O)c2cc(C)ccc2C)nc(N(C)C)n1` yields growth inhibition of -11.1
